# study system: GPR35 (Homo sapiens, UniProt Q9HC97, S294R)
# Sequence (Q9HC97 whole entry S294R): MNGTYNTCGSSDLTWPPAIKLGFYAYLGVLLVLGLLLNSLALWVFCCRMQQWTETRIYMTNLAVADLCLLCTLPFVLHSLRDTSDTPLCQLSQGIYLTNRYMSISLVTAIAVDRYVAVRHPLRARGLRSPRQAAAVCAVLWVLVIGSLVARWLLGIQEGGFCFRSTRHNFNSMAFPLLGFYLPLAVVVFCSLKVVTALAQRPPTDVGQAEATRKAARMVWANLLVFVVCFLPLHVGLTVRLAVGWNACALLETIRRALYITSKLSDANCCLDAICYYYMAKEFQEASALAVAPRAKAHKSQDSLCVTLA
# protocol description: cell-based
recorded endpoint: EC50
A bare number is not enough; add the unit after it.

## Task Need EC50, item CN1CCCN=C1/C=C/c1cccs1 [pyrantel pamoate]
## Result 88.7 nM

All figures here come from patent US9622995B2.
